The reader will find reported T/C values listed item by item below.
test system: Mus musculus; test: In vivo antitumor activity against P-388 leukemia in CDF1 mice at 8 mg or 21 umol by ip administration expressed as median survival time of drug treated mice/median survival time of control mice x100; assay type: functional

Worked examples, 3 compounds total:
> print(dat)
                                   compound  experimentalsystem  valuemeasured
1  CC1(C)CN1P(=O)(NC(=O)OCc1ccccc1[N+](=O)[O-])N1CC1(C)C (centres undefined)        Mus musculus           106%
2  CC1(C)CN1P(=O)(NC(=O)OCc1ccc([N+](=O)[O-])cc1)N1CC1(C)C (centres undefined)        Mus musculus           113%
3  COCC(Cn1ccnc1[N+](=O)[O-])OP(=O)(N1CC1(C)C)N1CC1(C)C (centres undefined)        Mus musculus           106%

// switching to the query compound
Any idea what its T/C is? The compound is CC1(C)CN1P(=O)(NC(=O)OCCn1ccnc1[N+](=O)[O-])N1CC1(C)C (centres undefined)
113%
